Provide the recorded shrunken log2 fold change for the entries that follow.
# System: Escherichia coli TOP10;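 note: peptides expressed intracellularly from a pBAD plasmid library in pooled LB shake-flask culture, induced with 0.3% L-arabinose, DNA abundance read by NGS, three biological replicates, DESeq2 with apeglm shrinkage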
# protocol-notes: shrunken log2 fold change of peptide-encoding DNA abundance (4.5 h post-induction vs induction); higher = less antimicrobial activity (less host growth inhibition)
# cond: time post-induction: 4.5 h; library: site-saturation at positions 5, 18, 19, 20
Answers are plain numbers.

Sample answers from the record:
| record-sequence | attribute-measured | numeric-value |
| --- | --- | --- |
| RRIRDRPPRLPRPRPRPVLMPRP | shrunken log2 fold change | -0.134 |
| RRIRERPPRLPRPRPRPNANPRP | shrunken log2 fold change | 0.343 |
| RRIRPRPPRLPRPRPRPHMSPRP | shrunken log2 fold change | -0.27 |

Hello, I would appreciate it if you could give shrunken log2 fold change for each entry below.
1. RRIRCRPPRLPRPRPRPQWNPRP
2. RRIRVRPPRLPRPRPRPAATPRP
3. RRIRMRPPRLPRPRPRPYRAPRP
4. RRIRPRPPRLPRPRPRPQQQPRP
5. RRIRWRPPRLPRPRPRPCHPPRP
6. RRIRARPPRLPRPRPRPWVNPRP
7. RRIRTRPPRLPRPRPRPELLPRP

1: 0.618; 2: 0.609; 3: -0.691; 4: -0.17; 5: -0.11; 6: -0.246; 7: 0.39

For each of the sequences below, note its shrunken log2 fold change.
1. RRIRCRPPRLPRPRPRPQETPRP
2. RRIRGRPPRLPRPRPRPYHPPRP
3. RRIRMRPPRLPRPRPRPFETPRP
4. RRIRLRPPRLPRPRPRPPPDPRP
5. RRIRWRPPRLPRPRPRPGHGPRP
6. RRIRMRPPRLPRPRPRPKFEPRP
7. RRIRTRPPRLPRPRPRPQGGPRP

0.00739
-0.559
-0.00884
1.19
0.214
0.109
0.114

For each of the sequences below, note its shrunken log2 fold change.
1. RRIRLRPPRLPRPRPRPLVNPRP
2. RRIRARPPRLPRPRPRPWLRPRP
3. RRIRTRPPRLPRPRPRPQTQPRP

1: -0.346; 2: 0.228; 3: -0.0967
